target: human PPARγ LBD bound to Gal4 DBD (Homo sapiens, UniProt P37231); construct: expressed in transfected cells; host or cells: HepG2; assay: PPARγ transfection luciferase reporter assay in HepG2 cells; type: cell-based; conditions: HepG2, 24 h; compared to full agonist response (standard TZD full agonist); read-out: PPARγ % activation
measure.name: Emax (%)

CCc1nc2c(C)cc(CCCOC)nc2n1[C@H]1CCc2cc(-c3ccccc3-c3nnn[nH]3)ccc21	21
CCc1nc2c(C)cc([C@H](O)c3ccccc3)nc2n1[C@H]1CCc2cc(-c3ccccc3-c3nnn[nH]3)ccc21	25
CCc1nc2c(C)cc([C@@H](O)c3ccccc3)nc2n1[C@H]1CCc2cc(-c3ccccc3-c3nnn[nH]3)ccc21 (single isomer, unassigned)	16
CCc1nc2c(C)cc(CC3CCCC3O)nc2n1[C@H]1CCc2cc(-c3ccccc3-c3nnn[nH]3)ccc21 (single isomer, unassigned)	22
CCc1nc2c(C)cc(CCCc3cccnc3)nc2n1[C@H]1CCc2cc(-c3ccccc3-c3nnn[nH]3)ccc21	20
CCc1nc2c(C)cc(CC[C@@H](O)CC)nc2n1[C@H]1CCc2cc(-c3ccccc3-c3nnn[nH]3)ccc21	26
CCc1nc2c(C)cc(CCC(O)CC)nc2n1[C@H]1CCc2cc(-c3ccccc3-c3nnn[nH]3)ccc21 (stereo partly drawn)	38
CCc1nc2c(C)cc(CCC(O)(CC)CC)nc2n1[C@H]1CCc2cc(-c3ccccc3-c3nnn[nH]3)ccc21	31
CCc1nc2c(C)cc(C(C)(O)C(C)C)nc2n1[C@H]1CCc2cc(-c3ccccc3-c3nnn[nH]3)ccc21 (stereo partly drawn)	21
CCc1nc2c(C)cc(CCc3cccnc3)nc2n1[C@H]1CCc2cc(-c3ccccc3-c3nnn[nH]3)ccc21	28
CCc1nnc(Cc2cc(C)c3nc(CC)n([C@H]4CCc5cc(-c6ccccc6-c6nnn[nH]6)ccc54)c3n2)o1	50
CCc1nc2c(C)cc(CCCn3cccn3)nc2n1[C@H]1CCc2cc(-c3ccccc3-c3nnn[nH]3)ccc21	23
CCc1nc2c(C)cc(Cn3nc(C)cc3C)nc2n1[C@H]1CCc2cc(-c3ccccc3-c3nnn[nH]3)ccc21	23
CCCc1nc2c(C)cc(CCC(C)(O)c3ccccc3)nc2n1[C@H]1CCc2cc(-c3ccccc3-c3nnn[nH]3)ccc21 (stereo partly drawn)	36
CCCc1nc2c(C)cc(CCC3(O)CCCC3)nc2n1[C@H]1CCc2cc(-c3ccccc3-c3nnn[nH]3)ccc21	20
CCCc1nc2c(C)cc(CC[C@H](C)O)nc2n1[C@H]1CCc2cc(-c3ccccc3-c3nnn[nH]3)ccc21	21
CCc1nc2c(C)cc(CCC3CCCCC3)nc2n1[C@H]1CCc2cc(-c3ccccc3-c3nnn[nH]3)ccc21	31
CCc1nc2c(C)cc(C3OC3(C)C)nc2n1[C@H]1CCc2cc(-c3ccccc3-c3nnn[nH]3)ccc21 (stereo partly drawn)	28
CCc1nc2c(C)cc([C@H](O)C(C)C)nc2n1[C@H]1CCc2cc(-c3ccccc3-c3nnn[nH]3)ccc21	39
CCc1nc2c(C)cc(Cc3ccccn3)nc2n1[C@H]1CCc2cc(-c3ccccc3-c3nnn[nH]3)ccc21	29
CCc1nc2c(C)cc(CCOC)nc2n1[C@H]1CCc2cc(-c3ccccc3-c3nnn[nH]3)ccc21	26
CCc1nc2c(C)cc(CCc3cc(C)ccc3C)nc2n1[C@H]1CCc2cc(-c3ccccc3-c3nnn[nH]3)ccc21	63
CCCc1nc2c(C)cc(CCC(C)O)nc2n1[C@H]1CCc2cc(-c3ccccc3-c3nnn[nH]3)ccc21 (stereo partly drawn)	18
CCc1nc2c(C)cc(CC3CCCCC3O)nc2n1[C@H]1CCc2cc(-c3ccccc3-c3nnn[nH]3)ccc21 (single isomer, unassigned)	21
CCc1nc2c(C)cc(CC(C)(C)O)nc2n1[C@H]1CCc2cc(-c3ccccc3-c3nnn[nH]3)ccc21	20
C=CCC(O)Cc1cc(C)c2nc(CC)n([C@H]3CCc4cc(-c5ccccc5-c5nnn[nH]5)ccc43)c2n1 (stereo partly drawn)	31
CCc1nc2c(C)cc(CC[C@@](C)(O)C(C)C)nc2n1[C@H]1CCc2cc(-c3ccccc3-c3nnn[nH]3)ccc21	38
CCc1nc2c(C)cc(CCO)nc2n1[C@H]1CCc2cc(-c3ccccc3-c3nnn[nH]3)ccc21 [Example 13a]	24
CCc1nc2c(C)cc(Cc3ccccc3)nc2n1[C@H]1CCc2cc(-c3ccccc3-c3nnn[nH]3)ccc21	27
CCc1nc2c(C)cc(CCC(O)c3cccnc3)nc2n1[C@H]1CCc2cc(-c3ccccc3-c3nnn[nH]3)ccc21 (stereo partly drawn)	12

====

target: human PPARγ LBD bound to Gal4 DBD (Homo sapiens); construct: expressed in transfected cells; host or cells: HepG2; assay: PPARγ transfection luciferase reporter assay in HepG2 cells; format: cell-based; settings: HepG2, 24 h; compared to full agonist response (standard TZD full agonist); read-out: PPARγ % activation
measure.name: Emax (%)

CCc1nc2c(C)cc([C@@H](OC)C(C)C)nc2n1[C@H]1CCc2cc(-c3ccccc3-c3nnn[nH]3)ccc21	17
CCc1nc2c(C)cc(CCC3(O)CCOC3)nc2n1[C@H]1CCc2cc(-c3ccccc3-c3nnn[nH]3)ccc21 (stereo partly shown)	26
CCc1nc2c(C)cc(CCc3ccccc3F)nc2n1[C@H]1CCc2cc(-c3ccccc3-c3nnn[nH]3)ccc21	26
CCc1nc2c(C)cc(CC[C@@H](O)C(C)C)nc2n1[C@H]1CCc2cc(-c3ccccc3-c3nnn[nH]3)ccc21	28
CCc1nc2c(C)cc(CCC(C)(C)O)nc2n1[C@H]1CCc2cc(-c3ccccc3-c3nnn[nH]3)ccc21	30
CCc1nc2c(C)cc(CC(O)C3CC3)nc2n1[C@H]1CCc2cc(-c3ccccc3-c3nnn[nH]3)ccc21 (stereo partly shown)	20
CCc1nc2c(C)cc(CCC3(O)CCCC3)nc2n1[C@H]1CCc2cc(-c3ccccc3-c3nnn[nH]3)ccc21	29

====

Tested on: ZDF male rat
Experiment: Glucose lowering in vivo assay
Settings: 10 mg/kg p.o. once daily for 28 days, 1 h fast
From the text: Homozygous expression of this mutation leads to a phenotype of hyperphagia, obesity, insulin resistance, hyperglycemia, and hypertriglyceridemia resulting in uncontrolled diabetes, β-cell failure, severe nephropathy, and proteinuria by 16 weeks of age. The hypoglycemic activity of the compounds of this invention can be determined by the amount of test compound that delays or suppresses elevations in glucose levels relative to a vehicle without test compound in male ZDF rats. […]
measure.name: Blood Glucose (1 h Fast) after single daily dose of 10 mg/kg p.o. for 28 days (mg/dL)

CCc1nc2c(C)cc(CCO)nc2n1[C@H]1CCc2cc(-c3ccccc3-c3nnn[nH]3)ccc21 [Example 13a]	112
CCc1nc2c(C)cc([C@@H](O)C(C)C)nc2n1[C@H]1CCc2cc(-c3ccccc3-c3nnn[nH]3)ccc21	239
CCc1nc2c(C)cc(CCOC)nc2n1[C@H]1CCc2cc(-c3ccccc3-c3nnn[nH]3)ccc21	120
CCc1nc2c(C)cc(CC(C)(C)O)nc2n1[C@H]1CCc2cc(-c3ccccc3-c3nnn[nH]3)ccc21	114

====

Target: human PPARγ LBD bound to Gal4 DBD (Homo sapiens, UniProt P37231)
Sequence (P37231 238-503 limits assumed): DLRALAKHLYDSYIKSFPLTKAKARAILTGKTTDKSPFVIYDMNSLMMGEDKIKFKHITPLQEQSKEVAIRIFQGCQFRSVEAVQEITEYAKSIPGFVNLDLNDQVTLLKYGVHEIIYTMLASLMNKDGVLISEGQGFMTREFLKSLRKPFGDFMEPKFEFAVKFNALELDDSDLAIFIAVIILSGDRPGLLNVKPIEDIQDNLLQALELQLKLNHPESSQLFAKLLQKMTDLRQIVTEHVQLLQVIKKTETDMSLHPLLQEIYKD
Assay: PPARγ transfection luciferase reporter assay in HepG2 cells
Settings: HepG2, 24 hours exposure
pEC50: −log10 of the molar value.
Consider the following molecules and their measured pEC50 readings.
measure.name: pEC50

CCc1nc2c(C)cc(CC[C@H](C)OC)nc2n1[C@H]1CCc2cc(-c3ccccc3-c3nnn[nH]3)ccc21	6.67
CCc1nc2c(C)cc(C(=O)CC(C)C)nc2n1[C@H]1CCc2cc(-c3ccccc3-c3nnn[nH]3)ccc21	6.28
CCc1nc2c(C)cc(Cn3nccn3)nc2n1[C@H]1CCc2cc(-c3ccccc3-c3nnn[nH]3)ccc21	6.36
CCc1nc2c(C)cc(CC[C@@H](O)C(C)C)nc2n1[C@H]1CCc2cc(-c3ccccc3-c3nnn[nH]3)ccc21	6.55
CCCc1nc2c(C)cc(CCC(C)(O)CC)nc2n1[C@H]1CCc2cc(-c3ccccc3-c3nnn[nH]3)ccc21 (some centres unmarked)	6.38
CCc1nc2c(C)cc(CC3CCCC3O)nc2n1[C@H]1CCc2cc(-c3ccccc3-c3nnn[nH]3)ccc21 (single isomer, unassigned)	6.61
CCCc1nc2c(C)cc(CCC(C)(O)c3ccccc3)nc2n1[C@H]1CCc2cc(-c3ccccc3-c3nnn[nH]3)ccc21 (some centres unmarked)	6.89
CCc1nc2c(C)cc(CCC(O)c3cccnc3)nc2n1[C@H]1CCc2cc(-c3ccccc3-c3nnn[nH]3)ccc21 (some centres unmarked)	6.23
CCc1nc2c(C)cc(CC[C@@H](C)OC)nc2n1[C@H]1CCc2cc(-c3ccccc3-c3nnn[nH]3)ccc21	6.87
CCc1nc2c(C)cc(Cn3cccn3)nc2n1[C@H]1CCc2cc(-c3ccccc3-c3nnn[nH]3)ccc21	6.56
CCc1nc2c(C)cc([C@H](O)c3ccccc3)nc2n1[C@H]1CCc2cc(-c3ccccc3-c3nnn[nH]3)ccc21	7.00
CCc1nc2c(C)cc(CCCOC)nc2n1[C@H]1CCc2cc(-c3ccccc3-c3nnn[nH]3)ccc21	6.72
CCc1nc2c(C)cc([C@@H](O)c3ccccc3)nc2n1[C@H]1CCc2cc(-c3ccccc3-c3nnn[nH]3)ccc21 (single isomer, unassigned)	7.22
CCc1nc2c(C)cc(CCC3CCCCC3)nc2n1[C@H]1CCc2cc(-c3ccccc3-c3nnn[nH]3)ccc21	6.70
